assay: Photophysical characterization; format: physicochemical; conditions: Table 1b; 3:7 v/v MeCN:PBS (pH=7.4)
Form field: λabs (one value per entry).
Reply numerically in nm, unit not repeated.

Recorded results for 3 molecules are shown here.
molecule	readout units	test result
COc1ccc(C2=[N+]3C(=Nc4c(-c5ccc(OCc6cn(C(COC7OC(CO)C(O)C(O)C7O)COC7OC(CO)C(O)C(O)C7O)nn6)cc5)cc(-c5ccc(OC)cc5)n4[B-]3(OC)OC)C(c3ccc(OCc4cn(C(COC5OC(CO)C(O)C(O)C5O)COC5OC(CO)C(O)C(O)C5O)nn4)cc3)=C2)cc1 (stereo not shown)	nm	681
COc1ccc(C2=[N+]3C(=Nc4c(-c5ccccc5)cc(-c5ccc(OC)cc5)n4[B-]3(F)F)C(c3ccccc3)=C2)cc1 [AB-OMe2, reference compound]	nm	689
COc1ccc(-c2cc(-c3ccccc3)c3n2[B-](OC)(OC)[N+]2=C(c4ccc(OCc5cn(C(COC6OC(CO)C(O)C(O)C6O)COC6OC(CO)C(O)C(O)C6O)nn5)cc4)C=C(c4ccccc4)C2=N3)cc1 (stereo not shown)	nm	675

So for CO[B-]1(OC)n2c(-c3ccc(OCc4cn(C(COC5OC(CO)C(O)C(O)C5O)COC5OC(CO)C(O)C(O)C5O)nn4)cc3)cc(-c3ccccc3)c2N=C2C(c3ccccc3)=CC(c3ccc(OCc4cn(C(COC5OC(CO)C(O)C(O)C5O)COC5OC(CO)C(O)C(O)C5O)nn4)cc3)=[N+]21 (stereo not shown) , the logged λabs turned out to be 679
